- experimental-protocol: qHTS for Inhibitors of the Aldehyde Dehydrogenase Family (ALDH1A2, ALDH1A3, ALDH2, ALDH3A1) (AID 2061307); further: nearly all actives have a fitted effect of over 50% in size; on Potency: test system not described further here; potency means the concentration at half of the fitted maximal effect
- condition: ALDH inhibition qHTS; series mostly up to 50.3 µM
Records with an inconclusive call do not appear. The source made the active and inactive calls. The call rests on the fitted dose curve; in most records, active means well fitted inhibition curve with a large enough effect; inconclusive means small, poorly fitted or top-dose-only effect; inactive means no such curve, though single readings can be large or run the other way.
metric-name: Potency

>>> df
                                   molecule  metric_name       measurement
0  O=C(Nc1cc(S(=O)(=O)N2CCOCC2)ccc1N1CCCCC1)c1cc(-c2ccccn2)nc2ccccc12      Potency          inactive
1  FC(F)(F)c1ccc(-c2ccc(CNc3nc(-c4ccccc4C(F)(F)F)nc4ccccc34)cc2)cn1      Potency  8.91 µM (active)
2  Cc1ccc(NS(=O)(=O)c2cc(N[C@@H](C)CO)cc3c2NC(=O)CC3)cc1C      Potency          inactive
3  Cc1ccc(S(=O)(=O)Nc2cnccc2C(=O)Nc2nc(-c3ccco3)cs2)cc1      Potency  7.98 µM (active)
4   Cc1ccc(NC(=O)c2cnc3cc(C)ccn3c2=O)c(C)c1      Potency          inactive
5  COc1ccc(OC)c(NC(=O)c2cc(C3CC3)nc3c2c(C)nn3-c2ccc(C)cc2)c1      Potency          inactive
6  O=C1NC(c2ccc(N3CCOCC3)cc2)(c2ccsc2)CC(O)=C1Sc1ccccc1Cl (stereo not given)      Potency          inactive
7  CNc1nc2c(s1)C(c1ccccc1Cl)CC(=O)N2 (stereo not given)      Potency  11.3 µM (active)
8  CCOC(=O)c1ccc(-n2cccc2/C=C2\NC(=O)NC2=O)cc1      Potency          inactive
9  CC(=O)c1cc2c(cc1NC(=O)c1cnn(-c3ccc(F)cc3F)c1)OCO2      Potency          inactive

---

- experimental-protocol: BET inhibitor-based combinations targeting novel dependencies in MECOM-rearranged (r) AML: HNT-34 cell line (AID 2202234); further: nearly all actives have a fitted effect of over 35% in size
- condition: HNT-34 AML viability, CellTiter-Glo luminescence, 48 h; series mostly up to 46 µM
Results filed as inconclusive are left out. The source made the active and inactive calls. Calls follow the shape of the dose curve; as a rule, active = well fitted inhibition curve with a large enough effect; inconclusive = small, poorly fitted or top-dose-only effect; inactive = no such curve, though single readings can be large or run the other way.
Classes used: true (active), false (inactive)

>>> print(df.to_string())
                                   molecule  answer_label
0  Cc1c[nH]c2nc(Nc3ccc(N4CCN(C)CC4)c(F)c3)nc(-c3cccc(CC#N)c3)c12          true
1  C=C1C(=O)O[C@@H]2[C@H]3O[C@]3(C)CC/C=C(\C)CC[C@@H]12          true
2  C[C@@H](Oc1ccc2[nH]nc(/C=C/c3cnn(CCO)c3)c2c1)c1c(Cl)cncc1Cl          true
3  CC(C)C[C@H](NC(=O)[C@H](Cc1ccccc1)NC(=O)OCc1ccccc1)C(=O)C=O         false
4  Cc1cnc(Nc2ccc(CN3CCOCC3)cc2)nc1Nc1cccc(S(=O)(=O)NC(C)(C)C)c1          true
5  Cc1nc2cccc(N)c2c(=O)n1C1CCC(=O)NC1=O (centres undefined)         false
6  CN(C)c1cc(NC(=O)CNC(C)(C)C)c(O)c2c1C[C@H]1C[C@H]3[C@H](N(C)C)C(=O)C(C(N)=O)=C(O)[C@]3(O)C(=O)C1=C2O         false
7  C=CC(=O)Nc1cccc(Oc2nc(Nc3ccc(N4CCN(C)CC4)c(F)c3)nc3[nH]ccc23)c1          true
8   CN(C(=O)c1c(O)c2ccccc2n(C)c1=O)c1ccccc1         false
